test system: SNB-75 CNS; assay: NCI tumour cell line growth inhibition, 48 h

MOLECULE: CCC[CH2][Sn]([CH2]CCC)([CH2]CCC)/[C](=C/[Si](C)(C)c1ccccc1)c1ccc2c(c1)OCO2
GI50: 58.5 µM
//
MOLECULE: O=C1CS/C(=N/S(=O)(=O)c2ccc(N3N=C4c5ccccc5CC4C3c3cccs3)cc2)N1C(=O)c1ccccc1 (stereo unspecified)
GI50: > 100 µM
//
MOLECULE: COc1cc(OC)c2c(=O)cc(-c3ccccc3OCc3ccccc3)oc2c1OC
GI50: 61.8 µM
//
MOLECULE: CCCCC#Cc1c(I)n(C2OC(CO[Si](C)(C)C(C)(C)C)C3OC(C)(C)OC32)c(=O)n(C(=O)c2ccccc2)c1=O (stereo unspecified)
GI50: 14.1 µM
//
MOLECULE: N#C/C(=C/N1CCN(C(=O)c2ccco2)C1=S)C(=O)Nc1ccc(Cl)cc1
GI50: > 50 µM
//
MOLECULE: Nc1c(C(=O)c2cccc(C(O)CO)c2)cnn1-c1ccc(F)cc1 (stereo unspecified)
GI50: > 25 µM
//
MOLECULE: Cc1nc(NS(=O)(=O)c2ccc(NCN3C(=O)c4ccccc4C3=O)cc2)oc1C
GI50: > 100 µM
//
MOLECULE: O=C1NC(=O)C(=Cc2cn(Cc3ccccc3)c3ccccc23)C(=O)N1
GI50: 7.61 µM
//
MOLECULE: CC1CCCC(C#N)(NOC2=NCCN2)C1 (stereo unspecified)
GI50: 40.3 µM
//
MOLECULE: O=C1NC(=O)C(c2cccc(Cl)c2)=C1Nc1ccc(Cl)c(C(=O)O)c1
GI50: > 25 µM
//
MOLECULE: CCN(CC)CCCNCc1cc(-c2ccccc2)nc2cc(Cl)ccc12
GI50: 1.57 µM
//
MOLECULE: CN1CCN(C(=O)c2ccc(NC(=O)Nc3ccc(-c4nc(N5CCOCC5)c5cccn5n4)cc3)cc2)CC1
GI50: 0.0134 µM
//
MOLECULE: Cc1nn(C)c2ncnc(N/N=C/c3cccc(O)c3O)c12
GI50: 0.548 µM
//
MOLECULE: CCN1CCN(c2cc(C(=O)Nc3cccc(Nc4ccc5c(OC)cccc5n4)c3)cc(C(F)(F)F)c2)CC1
GI50: 1.05 µM
//
MOLECULE: COc1cc2nc(N3CCC[C@H](NC4=CC(=O)c5ccccc5C4=O)C3)nc(N)c2cc1OC
GI50: 1.64 µM
//
MOLECULE: O=C(O)COc1ccc(OCC(=O)O)cc1
GI50: 0.684 µM
